Biological target: recombinant human ACC2 (Homo sapiens (Human), UniProt O00763)
Sequence (O00763 27-2458): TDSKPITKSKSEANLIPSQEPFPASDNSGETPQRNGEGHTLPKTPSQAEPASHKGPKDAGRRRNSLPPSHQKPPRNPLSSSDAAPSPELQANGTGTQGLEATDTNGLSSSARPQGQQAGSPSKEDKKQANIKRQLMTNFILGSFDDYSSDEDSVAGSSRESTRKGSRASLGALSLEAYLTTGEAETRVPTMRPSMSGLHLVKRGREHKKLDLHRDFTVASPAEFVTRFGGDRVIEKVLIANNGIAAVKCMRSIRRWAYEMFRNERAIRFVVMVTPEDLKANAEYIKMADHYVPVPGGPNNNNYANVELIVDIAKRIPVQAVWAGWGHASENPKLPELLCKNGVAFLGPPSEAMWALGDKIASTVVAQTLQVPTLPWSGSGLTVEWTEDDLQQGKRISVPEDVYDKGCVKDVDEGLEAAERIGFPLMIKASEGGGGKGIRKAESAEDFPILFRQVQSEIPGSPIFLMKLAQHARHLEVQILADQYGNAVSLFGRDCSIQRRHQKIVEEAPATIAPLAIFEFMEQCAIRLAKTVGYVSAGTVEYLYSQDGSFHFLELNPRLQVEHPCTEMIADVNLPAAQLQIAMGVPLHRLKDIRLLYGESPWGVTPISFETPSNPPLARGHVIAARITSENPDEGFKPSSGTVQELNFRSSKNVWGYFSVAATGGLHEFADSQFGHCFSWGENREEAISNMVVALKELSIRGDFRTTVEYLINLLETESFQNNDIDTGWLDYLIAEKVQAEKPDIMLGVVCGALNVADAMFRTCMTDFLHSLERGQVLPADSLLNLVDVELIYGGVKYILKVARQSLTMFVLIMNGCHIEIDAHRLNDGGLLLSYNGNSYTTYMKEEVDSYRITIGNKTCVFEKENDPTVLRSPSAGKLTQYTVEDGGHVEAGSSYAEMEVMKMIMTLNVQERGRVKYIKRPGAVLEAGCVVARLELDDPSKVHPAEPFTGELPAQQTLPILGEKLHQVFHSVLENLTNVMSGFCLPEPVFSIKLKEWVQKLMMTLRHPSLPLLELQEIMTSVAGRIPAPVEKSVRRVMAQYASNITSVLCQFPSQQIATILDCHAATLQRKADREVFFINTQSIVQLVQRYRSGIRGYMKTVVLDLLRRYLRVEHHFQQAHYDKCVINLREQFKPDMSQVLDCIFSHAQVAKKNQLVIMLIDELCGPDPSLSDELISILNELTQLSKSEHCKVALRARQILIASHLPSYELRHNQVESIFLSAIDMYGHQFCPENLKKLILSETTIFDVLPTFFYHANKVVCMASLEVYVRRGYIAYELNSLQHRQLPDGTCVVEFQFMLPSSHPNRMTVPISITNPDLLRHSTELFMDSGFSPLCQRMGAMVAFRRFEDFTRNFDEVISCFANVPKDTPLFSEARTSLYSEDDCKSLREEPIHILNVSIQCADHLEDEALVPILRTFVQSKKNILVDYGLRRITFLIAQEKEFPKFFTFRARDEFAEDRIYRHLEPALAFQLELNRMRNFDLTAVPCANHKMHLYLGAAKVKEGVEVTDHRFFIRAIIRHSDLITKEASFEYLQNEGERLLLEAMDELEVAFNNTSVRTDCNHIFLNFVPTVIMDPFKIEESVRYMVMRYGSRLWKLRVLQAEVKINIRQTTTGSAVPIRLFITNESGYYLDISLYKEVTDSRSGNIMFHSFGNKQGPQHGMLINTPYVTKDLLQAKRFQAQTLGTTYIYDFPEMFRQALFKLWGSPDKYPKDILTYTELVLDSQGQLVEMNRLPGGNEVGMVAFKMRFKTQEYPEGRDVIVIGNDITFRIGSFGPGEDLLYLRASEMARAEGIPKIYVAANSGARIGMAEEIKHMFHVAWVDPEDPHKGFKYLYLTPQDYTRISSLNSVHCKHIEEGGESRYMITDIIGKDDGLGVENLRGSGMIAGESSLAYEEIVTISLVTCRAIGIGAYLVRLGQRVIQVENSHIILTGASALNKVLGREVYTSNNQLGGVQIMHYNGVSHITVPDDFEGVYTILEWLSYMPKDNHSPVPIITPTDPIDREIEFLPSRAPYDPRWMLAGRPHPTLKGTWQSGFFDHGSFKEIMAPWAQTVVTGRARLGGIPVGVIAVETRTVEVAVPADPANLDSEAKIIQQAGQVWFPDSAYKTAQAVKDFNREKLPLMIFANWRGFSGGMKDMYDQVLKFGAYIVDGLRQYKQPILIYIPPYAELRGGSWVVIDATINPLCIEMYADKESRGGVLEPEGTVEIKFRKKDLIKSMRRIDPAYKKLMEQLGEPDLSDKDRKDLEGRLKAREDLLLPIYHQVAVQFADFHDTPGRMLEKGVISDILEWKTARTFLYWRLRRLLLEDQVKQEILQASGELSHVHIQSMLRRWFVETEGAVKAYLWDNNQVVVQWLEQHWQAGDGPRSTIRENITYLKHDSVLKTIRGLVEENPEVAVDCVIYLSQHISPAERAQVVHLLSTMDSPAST
Assay: Measurement of inhibitory activity on human ACC2 (MALDI-TOF MS, conversion of acetyl CoA to malonyl CoA)
Conditions: recombinant human ACC2, room temperature, 1 to 3 hours
Source text: After a cDNA encoding human ACC2 (27 amino acid residue to 2458 amino acid residues from the N-terminus) was cloned from human kidney cDNA library (Clontech), human ACC2 gene containing His-tag sequence at 5′ terminus was inserted into pFastBac1 (Invitrogen). Recombinant baculovirus was generated using Bac-to-Bac baculovirus expression system (Invitrogen) according to the manufacturer's protocol. To express human ACC2, Sf-9 cells were infected with recombinant baculovirus. […]
Categorize each record by its IC50 using range A: < 20 nM; range B: ≥ 20 nM and < 80 nM; range C: ≥ 80 nM

[in] Which band does Cn1c(O[C@H]2CC[C@H](OC[C@H](CF)NC(N)=O)CC2)nc2c(F)cc(OCC(F)F)c(F)c21 [Example I-232] fall in?
[out] range A

[in] Which band does CC(=O)N[C@@H](C)CC[C@H]1OC[C@H](Oc2nc3c(F)cc(OCC(F)F)c(F)c3n2C)C[C@@H]1F [Example I-196] fall in?
[out] range A

[in] Which band does CC(=O)N[C@@H](C)CO[C@H]1CC[C@H](Oc2nc3ncc(OC4CC4)cc3n2C)CC1 [Example I-199] fall in?
[out] range C

[in] Which band does CC(=O)N[C@@H](C)/C=C(\F)[C@@H]1CC[C@@H](Oc2nc3c(F)cc(OCC(F)F)c(F)c3n2C)CO1 [Example I-250] fall in?
[out] range B

[in] Which band does CC(=O)N[C@@H](C)CO[C@H]1CC[C@H](Oc2nc3c(F)cc(O[C@H]4C[C@H](O)C4)c(F)c3n2C)CC1 [Example I-223] fall in?
[out] range C

[in] Which band does Cn1c(O[C@H]2CC[C@H](OC[C@H](CF)NC(=O)CO)CC2)nc2c(F)cc(OCC(F)F)c(F)c21 [Example I-245] fall in?
[out] range B

[in] Which band does CC(=O)N[C@@H](CF)CO[C@H]1CC[C@H](Oc2nc3c(C#N)cc(OC4CC4)c(F)c3n2C)CC1 [Example I-206] fall in?
[out] range A

[in] Which band does CC(=O)N[C@@H](C)CO[C@H]1CC[C@H](Oc2nc3cc(F)c(F)cc3n2C)CC1 [Example I-238] fall in?
[out] range C

[in] Which band does CC(=O)N[C@@H](C)CO[C@H]1CC[C@H](Oc2nc3c(F)cc(OCC4(F)COC4)c(F)c3n2C)CC1 [Example I-195] fall in?
[out] range B

[in] Which band does Cn1c(O[C@H]2CC[C@H](OC[C@H](CF)NC(=O)C3CC3)CC2)nc2c(F)cc(OCC(F)F)c(F)c21 [Example I-233] fall in?
[out] range B

[in] Which band does C[C@@H](CO[C@H]1CC[C@H](Oc2nc3c(F)cc(OCC(F)F)c(Cl)c3n2C)CC1)NS(N)(=O)=O [Example I-248] fall in?
[out] range C

[in] Which band does C[C@@H](CO[C@H]1CC[C@H](Oc2nc3c(F)cc(OCC(F)F)c(F)c3n2C)CC1)NS(N)(=O)=O [Example I-242] fall in?
[out] range C

[in] Which band does CC(=O)N[C@@H](C)CO[C@H]1CC[C@H](Oc2nc3cc(F)c(F)c(F)c3n2C)CC1 [Example I-215] fall in?
[out] range A

[in] Which band does Cn1c(O[C@H]2CC[C@H](OC[C@H](CF)NC(N)=O)CC2)nc2c(F)cc(OC3CC3)cc21 [Example I-213] fall in?
[out] range A

meta.source: patent US10233156B2
